Experiment: Vapor-liquid equilibrium still: relative volatility of m-DIPB to p-DIPB with alcohol agent and azeotrope boiling point
Type: physicochemical
Details: vapor-liquid equilibrium still; starting mixture 50 % alcohol, 25 % m-DIPB, 25 % p-DIPB
Would you mind telling me the reported Relative Volatility (m-DIPB to p-DIPB) of each entry?
A bare number is all that is needed in reply.

Item: CCCCCCC(C)O (stereo not drawn) [2-Octanol] | Relative Volatility (m-DIPB to p-DIPB): 1.10

Item: CCCCCCO [n-Hexanol] | Relative Volatility (m-DIPB to p-DIPB): 1.10

Item: CC(C)CCCCCCO [Isononyl alcohol] | Relative Volatility (m-DIPB to p-DIPB): 1.22

Item: CCCCOCCOCC(C)O (stereo not drawn) [Butoxyethoxypropanol] | Relative Volatility (m-DIPB to p-DIPB): 1.17

Item: OCCc1ccccc1 [Phenethyl alcohol] | Relative Volatility (m-DIPB to p-DIPB): 1.06

Item: CC(C)c1ccccc1O [o-Isopropyl phenol] | Relative Volatility (m-DIPB to p-DIPB): 1.34

Item: CCOCCOCCO [Diethylene glycol ethyl ether] | Relative Volatility (m-DIPB to p-DIPB): 1.25

Item: CC(C)CC(O)CC(C)C [Diisobutyl carbinol] | Relative Volatility (m-DIPB to p-DIPB): 1.20

Item: CCCCOCCO [Ethylene glycol butyl ether] | Relative Volatility (m-DIPB to p-DIPB): 0.6

Item: Cc1cccc(O)c1 [m-Cresol] | Relative Volatility (m-DIPB to p-DIPB): 1.17

Item: CCC(C)c1ccccc1O (stereo not drawn) [o-sec. Butyl phenol] | Relative Volatility (m-DIPB to p-DIPB): 1.23

Item: COCCOCCO [Diethylene glycol methyl ether] | Relative Volatility (m-DIPB to p-DIPB): 1.28

Item: CCCCCCCCCO [n-Nonyl alcohol] | Relative Volatility (m-DIPB to p-DIPB): 1.23

Item: Cc1ccc(O)cc1 [p-Cresol] | Relative Volatility (m-DIPB to p-DIPB): 1.25

Item: CC(=O)CC(C)(C)O [Diacetone alcohol] | Relative Volatility (m-DIPB to p-DIPB): 1.13

Item: CCCCCCCCO [1-Octanol] | Relative Volatility (m-DIPB to p-DIPB): 1.14

Item: CCCCC(CC)CO (stereo not drawn) [2-Ethyl hexanol] | Relative Volatility (m-DIPB to p-DIPB): 1.27

Item: CCCCOCCOCCO [Diethylene glycol butyl ether] | Relative Volatility (m-DIPB to p-DIPB): 1.29

Item: Oc1ccccc1 [Phenol] | Relative Volatility (m-DIPB to p-DIPB): 1.24

Item: OCCOc1ccccc1 [Ethylene glycol phenyl ether] | Relative Volatility (m-DIPB to p-DIPB): 1.14

Item: CC(C)CCCCCO [Isooctanol] | Relative Volatility (m-DIPB to p-DIPB): 1.15

Item: OCc1ccccc1 [Benzyl alcohol] | Relative Volatility (m-DIPB to p-DIPB): 1.11

Item: CC(O)CO (stereo not drawn) [Propylene glycol] | Relative Volatility (m-DIPB to p-DIPB): 1.28

Item: OCC1CCCO1 (stereo not drawn) [Tetrahydrofurfuryl alcohol] | Relative Volatility (m-DIPB to p-DIPB): 1.21

Item: Cc1ccccc1O [o-Cresol] | Relative Volatility (m-DIPB to p-DIPB): 1.26

Item: CCCCCCOCCO [Ethylene glycol hexyl ether] | Relative Volatility (m-DIPB to p-DIPB): 1.26

Item: CC(C)(C)c1ccccc1O [o-tert. Butyl phenol] | Relative Volatility (m-DIPB to p-DIPB): 1.20

* * *

Test: Vapor-liquid equilibrium still: relative volatility of m-DIPB to p-DIPB with alcohol agent and azeotrope boiling point
Type: physicochemical
Settings: 640 mm. Hg; starting mixture 50 % alcohol, 25 % m-DIPB, 25 % p-DIPB
Excerpt: The data in Tables 2 and 3 were obtained in a vapor-liquid equilibrium still. In each case, the starting material was a mixture containing 50 % alcohol, 25 % m-DIPB and 25 % p-DIPB. The boiling points of the azeotropes at 640 mm. Hg are shown. The relative volatilities are listed for each of the alcohols investigated. Forty grams of m-DIPB - p-DIPB mixture and 40 grams of diethylene glycol butyl ether were charged to an Othmer type vapor-liquid equilibrium still and refluxed for thirteen hours. […]
Would you mind telling me the reported Azeotrope B.P. of each entry?
# output: bare number, implied unit °C

Item: CCCCOCCOCCO | Azeotrope B.P.: 200

Item: CC(C)c1ccccc1O | Azeotrope B.P.: 200

Item: Cc1cccc(O)c1 | Azeotrope B.P.: 189

Item: CCOCCOCCO | Azeotrope B.P.: 185

Item: CC(C)CCCCCCO | Azeotrope B.P.: 194

Item: CC(C)(C)c1ccccc1O | Azeotrope B.P.: 205

Item: OCC1CCCO1 (stereo not drawn) [Tetrahydrofurfuryl alcohol] | Azeotrope B.P.: 171

Item: CCCCCCCCCO | Azeotrope B.P.: 196

Item: CCCCCCOCCO | Azeotrope B.P.: 195

Item: CC(C)CC(O)CC(C)C | Azeotrope B.P.: 180

Item: Cc1ccc(O)cc1 | Azeotrope B.P.: 188

Item: CCC(C)c1ccccc1O (stereo not drawn) | Azeotrope B.P.: 205

Item: Cc1ccccc1O | Azeotrope B.P.: 184

Item: CCCCC(CC)CO (stereo not drawn) | Azeotrope B.P.: 183

Item: Oc1ccccc1 | Azeotrope B.P.: 174

Item: CCCCOCCOCC(C)O (stereo not drawn) | Azeotrope B.P.: 199

Item: CC(O)CO (stereo not drawn) | Azeotrope B.P.: 168

Item: COCCOCCO | Azeotrope B.P.: 182
